Assay Notes: Metabolic stability in human liver microsomes after 10 mins
Type: ADME, Microsome
Measurement Parameters: read-out: Stability
Experimental Endpoint: remaining at 10 min (%)
Your answer is read as %, so omit the unit and give the number.

**Query** In one line, give reported remaining at 10 min of the entry NC(=O)c1nn(-c2ccc3onc(N)c3c2)c2c(F)c(-c3ccc(N4CCCCC4=O)cc3F)ccc12 .
**Result** 68.6

**Query** Look up and state reported remaining at 10 min for CN(C)Cc1nccn1-c1ccc(NC(=O)c2cc(C(F)(F)F)nn2-c2ccc3onc(N)c3c2)c(F)c1
**Result** 9.1

**Query** Determine its reported remaining at 10 min: CN(C)Cc1ncccc1-c1ccc(-c2ccc3c(C(N)=O)nn(-c4ccc5onc(N)c5c4)c3c2F)c(F)c1
**Result** 86

**Query** Respond only with remaining at 10 min recorded for CN(C)CCN(c1ccncc1)c1ccc(-c2ccc3c(C(N)=O)nn(-c4ccc5onc(N)c5c4)c3c2F)c(F)c1
**Result** 52

**Query** Determine from records and report remaining at 10 min for CN(C)Cc1nccn1-c1ccc(-c2ccc3c(C(N)=O)nn(-c4ccc5onc(N)c5c4)c3c2F)c(F)c1
**Result** 5.4

**Query** Quickly give me recorded remaining at 10 min for CN(C)Cc1[nH]ncc1-c1ccc(-c2ccc3c(C(N)=O)nn(-c4ccc5onc(N)c5c4)c3c2F)c(F)c1
**Result** 54

**Query** Given CN(C)Cc1cnccc1-c1ccc(-c2ccc3c(C(N)=O)nn(-c4ccc5onc(N)c5c4)c3c2F)c(F)c1 , respond with its remaining at 10 min.
**Result** 7

**Query** Given CN(C)Cc1ccccc1-c1ccc(-c2ccc3c(C(N)=O)nn(-c4ccc5onc(N)c5c4)c3c2F)c(F)c1 , respond with its remaining at 10 min.
**Result** 83

**Query** Name the recorded remaining at 10 min of the item CN(C)CCCN(c1ccncc1)c1ccc(-c2ccc3c(C(N)=O)nn(-c4ccc5onc(N)c5c4)c3c2F)c(F)c1 in your answer.
**Result** 87

**Query** Note down remaining at 10 min recorded for CN(c1ccncc1)c1ccc(-c2ccc3c(C(N)=O)nn(-c4ccc5onc(N)c5c4)c3c2F)c(F)c1
**Result** 79

---

Protein target, amino acids: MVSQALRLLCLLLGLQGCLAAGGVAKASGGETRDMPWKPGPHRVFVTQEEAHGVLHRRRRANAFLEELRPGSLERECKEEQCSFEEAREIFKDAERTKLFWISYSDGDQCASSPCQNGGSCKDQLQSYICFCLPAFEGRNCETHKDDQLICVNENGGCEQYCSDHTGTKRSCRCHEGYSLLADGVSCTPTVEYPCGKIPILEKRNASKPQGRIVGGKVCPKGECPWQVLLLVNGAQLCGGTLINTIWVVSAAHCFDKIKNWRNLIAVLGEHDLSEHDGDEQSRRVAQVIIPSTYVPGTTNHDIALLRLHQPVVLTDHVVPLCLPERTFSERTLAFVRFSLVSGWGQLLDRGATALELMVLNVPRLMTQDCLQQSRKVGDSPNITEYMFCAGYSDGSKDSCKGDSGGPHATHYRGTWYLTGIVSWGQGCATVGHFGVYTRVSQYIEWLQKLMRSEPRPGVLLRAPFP
Experimental Endpoint: IC50 (nM)
Give the value in nM but do not write nM after it.

**Query** Indicate its recorded IC50; the compound in question is CC(C)Nc1ncc(-c2cc(N)cc(C(=O)O)c2)n(CC(=O)NCc2ccc(C(=N)N)cc2)c1=O
**Result** 118

**Query** Find the measured IC50 of CC(C)Nc1ncc(-c2cc(N)cc(N)c2)n(CC(=O)NCc2ccc(C(=N)N)cc2)c1=O and report it.
**Result** 52
